- assayedSystem: T1, DGI-2 polypeptide (UniProt Q15004 1-111, limits assumed)
- T1 construct: Soluble recombinant protein coated at 500 ng/well; vector tag of pIVEX2.3-MCS not described for this construct; also called KIAA0101
- T1 sequence (looked up): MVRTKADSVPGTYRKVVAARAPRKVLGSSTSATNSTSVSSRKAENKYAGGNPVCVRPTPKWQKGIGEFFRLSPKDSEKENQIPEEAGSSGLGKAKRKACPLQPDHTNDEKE
- protocolNotes: phage ELISA
parameter: DGI-2 (OD)
Return type: number; implicit unit OD.

binder	obsValue
VLQRSLWKDWVDGVMHGGGSRGVAAAGAPVPYPDPLEPRP [DGI-2-20R-3-A7]	4.8
TPVAISIPAGVCSTSVCGRDAAAGAPVPYPDPLEPRP [DGI-2-20F-PP-C11]	2.4
FRMWVQSCFWGQPGTGCGEGAAAGAPVPYPDPLEPRP [DGI-2-20R-3-D2]	7.9
YTPASILTGFQRGYEGAGNGAAAGAPVPYPDPLEPRP [DGI-2-20R-4-G7]	4.7
REFFNQASRGAWGYMFREWVEGAAAGAPVPYPDPLEPRP [DGI-2-40F-3-A1]	4.5
KVWGCGARRGWERLGHLNQVAAAGAPVPYPDPLEPRP [DGI-2-20F-PP-B10]	1.9

Quickly give me recorded DGI-2 (OD) for VWAAWVEGSLLSPRQEPVRDAAAGAPVPYPDPLEPRP [DGI-2-20R-4-G4]
10.2
